# SUBJECT OF TEST: T1, PUF4 RNA-binding domain (Saccharomyces cerevisiae, UniProt P25339 537-888)
# T1 sequence: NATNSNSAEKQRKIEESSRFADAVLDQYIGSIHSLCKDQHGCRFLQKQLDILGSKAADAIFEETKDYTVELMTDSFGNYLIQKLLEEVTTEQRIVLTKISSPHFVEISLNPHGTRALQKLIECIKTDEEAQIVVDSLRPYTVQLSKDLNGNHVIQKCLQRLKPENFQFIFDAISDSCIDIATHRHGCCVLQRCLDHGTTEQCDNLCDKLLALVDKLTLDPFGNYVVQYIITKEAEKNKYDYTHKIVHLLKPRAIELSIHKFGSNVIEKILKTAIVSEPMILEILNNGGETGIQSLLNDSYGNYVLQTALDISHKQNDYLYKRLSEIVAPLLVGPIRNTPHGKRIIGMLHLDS
# PROTOCOL DETAILS: Mg; RNA-MaP; 20 mM Na-HEPES pH 7.4, 30 mM KOAc, 0.75 mM MgCl2, 0.1% Tween-20, 5% glycerol, 0.1 mg/mL BSA, 2 mM DTT; 25 C; 0.0125-409.6 nM protein
# RUN PARAMETERS: tags: N-His6-TEV cleaved; C-SNAP kept, Cy3B-labelled; label: tethered on chip by stalled RNA polymerase
pKd: −log10 of the molar value.
Given measured pKd, output fulfilled if it is greater than or equal to 7 and not fulfilled if not.

Worked cases, answers included:
* UCUCUUCUUGUAUAUAUCUCUAUCUCUU (ssRNA) [Ie_S1_P3E.2_K3.1_C3.2_H3.1_A3.1_F3.1_[+8TCTC]_T3.2] | fulfilled
* UCUCUUUGUAUCUUAGUCUCUU (ssRNA) [Ic_S1_P5E.1_K5.1_C5.1_H5.1_A5.1_[T6C]_[A7T]_F5.1_[T9A]_[A10G]_T5.1] | fulfilled
* UCUCUUUCACACUUAUUACAUCUCUU (ssRNA) [Id_ii_S1_P5E.4_K5.3_C5.2_[C-2T]_[T-1C]_H5.3_A5.1_F5.1_T5.2_[T11C]] | not fulfilled
* UCUCUUUGUACGUCCUCUCUU (ssRNA) [Ic_S1_P4E.1_K4.1_C4.1_H4.1_A4.1_[T5C]_[A6G]_F4.1_[T8C]_[A9C]_T4.1] | not fulfilled
* UCUCUUUGUAACCGCCUCUCUU (ssRNA) [Ic_S1_P5E.1_K5.1_C5.1_H5.1_A5.1_[T5A]_[T6C]_[A7C]_F5.1_[T8G]_[T9C]_[A10C]_T5.1] | not fulfilled

// query Is it the case that Id_ii_S2_P5E.2_K5.1_C5.2_[T-1G]_H5.1_A5.1_F5.1_T5.2_[A12T] (ssRNA) RNA: UUUGAUUAAUAUGAUAUCGUUCUUUCUCGUGUAUUAUUAUUUUCUUUCUCGAUAUCAUAUUAAUCUUU has pKd reaching or exceeding 7?
// result fulfilled

// query Reported pKd at or above 7? Id_ii_S2_P4E.3_K4.2_C4.2_[C-2A]_H4.2_A4.1_F4.1_T4.2_[G10T]_[T11C] (ssRNA) RNA: UUUGAUUAAUAUGAUAUCGUUCUUUCUAUUAUAUAUUAUCUUCUUUCUCGAUAUCAUAUUAAUCUUU
// result fulfilled

// query Quick check, pKd >= 7? UCUCUUUGUAUGUCUCUCUU (ssRNA) [Ic_S1_P3E.1_K3.1_C3.1_H3.1_A3.1_[A6G]_F3.1_[A8C]_T3.1]
// result not fulfilled

// query Does the reported pKd for Ib_S2_P4E.1_K4.1_C4.1_H4.1_[G2T]_A4.1_F4.1_[A9T]_T4.1 (ssRNA) RNA: UUUGAUUAAUAUGAUAUCGUUCUUUCUUUUAUAUUUUUCUUUCUCGAUAUCAUAUUAAUCUUU fall at or above the 7 mark?
// result not fulfilled

// query Assess whether reported pKd for UCUCUUUGUAAAUGCUCUCUU (ssRNA) [Ic_S1_P4E.1_K4.1_C4.1_H4.1_A4.1_[T5A]_F4.1_[T8G]_[A9C]_T4.1] sits at 7 or higher.
// result not fulfilled
